The origin of these recorded values is patent US20240083861A1.

# test-target: Recombinant human HSD17B13 enzyme (Homo sapiens)
# Sequence (Q7Z5P4 20-300): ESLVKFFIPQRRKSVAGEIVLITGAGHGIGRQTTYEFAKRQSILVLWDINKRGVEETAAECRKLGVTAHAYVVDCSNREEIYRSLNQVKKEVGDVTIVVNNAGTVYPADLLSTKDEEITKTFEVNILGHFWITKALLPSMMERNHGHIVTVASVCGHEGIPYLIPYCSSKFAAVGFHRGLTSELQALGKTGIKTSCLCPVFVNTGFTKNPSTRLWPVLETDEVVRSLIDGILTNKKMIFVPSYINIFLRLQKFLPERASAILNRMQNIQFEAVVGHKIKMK
# assay-overview: HSD17b13 NAD(P)H-Glo biochemical assay
# condition-parameters: 50 uM estradiol, 1 mM NAD+, NAD(P)H-Glo luminescence; read-out: HSD17β13 IC50
pIC50: −log10 of the molar value.
Below, each of the compounds is paired with its reported pIC50 value.

# compound, pIC50
records = [
    ("Cn1nc(-c2cc(C(F)(F)F)c(F)c(O)c2F)c2cnc(N3CCN(C(=O)Nc4ccccc4)CC34CCC4)cc21 [Compound 21.05]", "> 7.00"),
    ("Cn1nc(-c2cc(O)c(F)c(C(F)(F)F)c2)c2ccc(N3CCN(S(C)(=O)=O)CC3)cc21 [Compound 9.26]", "6.00 to 7.00"),
    ("CN(c1ncc2c(-c3cc(C(F)(F)F)c(F)c(O)c3F)nn(C)c2n1)C1CC1 [Compound 12.04]", "> 7.00"),
    ("CS(=O)(=O)N1CCN(c2cc3oc(-c4cc(O)c(F)c(C(F)(F)F)c4)nc3cn2)CC1 [Compound 6.01]", "6.00 to 7.00"),
    ("CC(=O)NC1CCN(c2ncc3c(-c4cc(C(F)(F)F)c(F)c(O)c4F)nn(C)c3n2)CC1 [Compound 18.22]", "> 7.00"),
    ("O=C(NC12CC(C1)C2)c1ccc2oc(-c3cc(C(F)(F)F)c(F)c(O)c3F)nc2c1 [Compound 1.13]", "> 7.00"),
    ("Cn1nc(-c2cc(C(F)(F)F)c(F)c(O)c2F)c2cnc(N3CCOCC3C3CCC3)nc21 (stereo not shown) [Compound 18.104]", "> 7.00"),
]

###

# test-target: Recombinant human HSD17B13 enzyme (Homo sapiens, UniProt Q7Z5P4)
# assay-overview: HSD17b13 NAD(P)H-Glo biochemical assay
# condition-parameters: 50 uM estradiol, 1 mM NAD+, NAD(P)H-Glo luminescence; read-out: HSD17β13 IC50
pIC50: −log10 of the molar value.

# compound, pIC50
rows = [
    ("Cn1nc(-c2cc(C(F)(F)F)c(F)c(O)c2F)c2cnc(N3CCOCC3)cc21", "> 7.00"),
    ("Cn1nc(-c2cc(C(F)(F)F)c(F)c(O)c2F)c2cnc(N3CCOCC34CCC4)nc21", "> 7.00"),
    ("CC(C)N1CCN(c2ncc3c(-c4cc(C(F)(F)F)c(F)c(O)c4F)nn(C)c3n2)CC1", "6.00 to 7.00"),
    ("Cc1cc(-c2n[nH]c3cc(N4CCN(S(C)(=O)=O)CC4)ccc23)c(F)c(O)c1F", "6.00 to 7.00"),
    ("COCC1(N(C)c2ncc3c(-c4cc(C(F)(F)F)c(F)c(O)c4F)nn(C)c3n2)CCC1", "> 7.00"),
    ("CS(=O)(=O)N1CCN(C(=O)c2ccc3oc(-c4cc(O)c(F)c(F)c4)nc3c2)CC1", "4.52 to 6.00"),
    ("Oc1ccc(-c2ccc3oc(-c4ccc(F)c(O)c4)nc3c2)cc1", "6.00 to 7.00"),
    ("C[C@H]1CN(C(=O)Nc2ccccc2)CCN1c1cc2c(cn1)c(-c1cc(C(F)(F)F)c(F)c(O)c1F)nn2C", "> 7.00"),
    ("CN1CCC2(CC1)CN(c1ncc3c(-c4cc(C(F)(F)F)c(F)c(O)c4F)nn(C)c3n1)CCO2", "6.00 to 7.00"),
    ("Cn1nc(-c2cc(C(F)(F)F)c(F)c(O)c2F)c2cnc(N3CCNC(=O)C34CC4)cc21", "> 7.00"),
    ("Cn1nc(-c2cc(C(F)(F)F)c(F)c(O)c2F)c2cnc(N3CCN(S(C)(=O)=O)C4(CCCC4)C3)nc21", "> 7.00"),
    ("Cn1nc(-c2cc(C(F)(F)F)c(F)c(O)c2F)c2cnc(N3CCCC(O)C3)nc21 (stereo not drawn)", "> 7.00"),
    ("Cc1cc(-c2n[nH]c3cc(C4=CCN(S(C)(=O)=O)CC4)ccc23)c(F)c(O)c1F", "> 7.00"),
    ("Cn1nc(-c2cc(C(F)(F)F)c(F)c(O)c2F)c2cnc(N3CCOCC3C(=O)O)nc21 (stereo not drawn)", "4.52 to 6.00"),
    ("CN1CCN(c2ncc3c(-c4cc(C(F)(F)F)c(F)c(O)c4F)nn(C)c3n2)CC12CC2", "> 7.00"),
]
